Reference for the values: ChEMBL document CHEMBL1201862

# study target: Histone-lysine N-methyltransferase NSD2 (Homo sapiens, UniProt O96028)
# Sequence (O96028 whole entry): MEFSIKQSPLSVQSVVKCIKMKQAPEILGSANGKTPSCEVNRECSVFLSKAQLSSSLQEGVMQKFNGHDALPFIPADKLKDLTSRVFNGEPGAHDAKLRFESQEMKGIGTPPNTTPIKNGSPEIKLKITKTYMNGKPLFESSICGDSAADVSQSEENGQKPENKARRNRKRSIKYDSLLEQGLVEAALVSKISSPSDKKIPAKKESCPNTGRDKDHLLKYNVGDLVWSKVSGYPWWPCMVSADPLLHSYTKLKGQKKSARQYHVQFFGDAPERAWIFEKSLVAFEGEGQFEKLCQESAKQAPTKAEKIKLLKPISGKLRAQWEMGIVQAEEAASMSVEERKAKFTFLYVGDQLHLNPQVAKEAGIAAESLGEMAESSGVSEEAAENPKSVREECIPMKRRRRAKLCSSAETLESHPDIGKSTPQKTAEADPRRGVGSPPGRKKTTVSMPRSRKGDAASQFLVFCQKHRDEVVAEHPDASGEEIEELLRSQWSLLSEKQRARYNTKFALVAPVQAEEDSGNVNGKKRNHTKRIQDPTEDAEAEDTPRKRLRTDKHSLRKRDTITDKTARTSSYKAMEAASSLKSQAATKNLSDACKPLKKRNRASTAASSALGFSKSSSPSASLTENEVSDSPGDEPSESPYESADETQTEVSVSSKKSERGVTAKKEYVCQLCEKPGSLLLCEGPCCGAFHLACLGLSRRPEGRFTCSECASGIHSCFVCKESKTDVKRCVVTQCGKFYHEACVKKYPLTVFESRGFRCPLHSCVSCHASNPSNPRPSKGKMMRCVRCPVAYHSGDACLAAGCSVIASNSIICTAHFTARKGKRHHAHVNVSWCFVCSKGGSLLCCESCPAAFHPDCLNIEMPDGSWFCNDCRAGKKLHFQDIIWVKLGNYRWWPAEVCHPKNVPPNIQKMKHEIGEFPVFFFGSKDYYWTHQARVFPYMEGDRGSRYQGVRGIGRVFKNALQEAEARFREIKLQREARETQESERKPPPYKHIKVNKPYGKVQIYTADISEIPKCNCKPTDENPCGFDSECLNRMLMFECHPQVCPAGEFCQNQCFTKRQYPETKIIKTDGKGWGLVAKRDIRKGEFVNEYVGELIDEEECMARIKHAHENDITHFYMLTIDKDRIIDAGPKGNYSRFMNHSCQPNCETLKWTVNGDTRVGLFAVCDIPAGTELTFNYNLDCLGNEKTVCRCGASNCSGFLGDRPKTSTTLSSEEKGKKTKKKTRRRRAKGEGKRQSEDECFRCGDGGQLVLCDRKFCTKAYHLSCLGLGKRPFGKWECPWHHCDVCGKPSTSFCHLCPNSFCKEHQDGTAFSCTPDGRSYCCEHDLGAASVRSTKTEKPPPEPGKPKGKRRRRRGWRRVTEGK
# Assay type: biochemical
Activity calls are given as the source filed them.
Outcomes: active, inactive

# molecule, group
measured = [
    ("CC(C)Cn1c(N)c(C(=O)COC(=O)c2ccc([N+](=O)[O-])o2)c(=O)n(C)c1=O", "inactive"),
    ("O=C(O)c1cccc(-n2cccc2/C=C\\[N+](=O)[O-])c1", "inactive"),
    ("CCCC(=O)NC1=C(N2CC2)C(=O)C(NC(=O)CCC)=C(N2CC2)C1=O", "active"),
    ("CN1CCN(C2=C(Cl)C(=O)c3ccccc3C2=O)CC1", "active"),
]

---

# study target: Peroxisome proliferator-activated receptor gamma/Nuclear receptor coactivator 1 (Homo sapiens);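 also: agonist potency as compounds enhance coactivator SRC-1 recruitment to PPARgamma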
# Sequence (P37231 whole entry): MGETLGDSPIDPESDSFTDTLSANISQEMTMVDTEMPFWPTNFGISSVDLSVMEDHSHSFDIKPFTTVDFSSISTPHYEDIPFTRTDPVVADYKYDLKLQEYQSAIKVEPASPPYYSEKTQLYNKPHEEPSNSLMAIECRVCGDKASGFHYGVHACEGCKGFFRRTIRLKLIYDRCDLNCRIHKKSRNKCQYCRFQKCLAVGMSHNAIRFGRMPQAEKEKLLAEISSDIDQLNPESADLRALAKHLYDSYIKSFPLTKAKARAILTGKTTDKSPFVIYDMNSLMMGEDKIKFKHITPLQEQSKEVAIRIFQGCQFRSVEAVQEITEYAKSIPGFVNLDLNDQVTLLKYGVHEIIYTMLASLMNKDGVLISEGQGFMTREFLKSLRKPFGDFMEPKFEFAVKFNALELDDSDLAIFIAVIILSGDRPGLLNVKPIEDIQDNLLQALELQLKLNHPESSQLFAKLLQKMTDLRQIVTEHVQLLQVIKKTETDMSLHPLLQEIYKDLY
# Sequence (Q15788 whole entry, further chain): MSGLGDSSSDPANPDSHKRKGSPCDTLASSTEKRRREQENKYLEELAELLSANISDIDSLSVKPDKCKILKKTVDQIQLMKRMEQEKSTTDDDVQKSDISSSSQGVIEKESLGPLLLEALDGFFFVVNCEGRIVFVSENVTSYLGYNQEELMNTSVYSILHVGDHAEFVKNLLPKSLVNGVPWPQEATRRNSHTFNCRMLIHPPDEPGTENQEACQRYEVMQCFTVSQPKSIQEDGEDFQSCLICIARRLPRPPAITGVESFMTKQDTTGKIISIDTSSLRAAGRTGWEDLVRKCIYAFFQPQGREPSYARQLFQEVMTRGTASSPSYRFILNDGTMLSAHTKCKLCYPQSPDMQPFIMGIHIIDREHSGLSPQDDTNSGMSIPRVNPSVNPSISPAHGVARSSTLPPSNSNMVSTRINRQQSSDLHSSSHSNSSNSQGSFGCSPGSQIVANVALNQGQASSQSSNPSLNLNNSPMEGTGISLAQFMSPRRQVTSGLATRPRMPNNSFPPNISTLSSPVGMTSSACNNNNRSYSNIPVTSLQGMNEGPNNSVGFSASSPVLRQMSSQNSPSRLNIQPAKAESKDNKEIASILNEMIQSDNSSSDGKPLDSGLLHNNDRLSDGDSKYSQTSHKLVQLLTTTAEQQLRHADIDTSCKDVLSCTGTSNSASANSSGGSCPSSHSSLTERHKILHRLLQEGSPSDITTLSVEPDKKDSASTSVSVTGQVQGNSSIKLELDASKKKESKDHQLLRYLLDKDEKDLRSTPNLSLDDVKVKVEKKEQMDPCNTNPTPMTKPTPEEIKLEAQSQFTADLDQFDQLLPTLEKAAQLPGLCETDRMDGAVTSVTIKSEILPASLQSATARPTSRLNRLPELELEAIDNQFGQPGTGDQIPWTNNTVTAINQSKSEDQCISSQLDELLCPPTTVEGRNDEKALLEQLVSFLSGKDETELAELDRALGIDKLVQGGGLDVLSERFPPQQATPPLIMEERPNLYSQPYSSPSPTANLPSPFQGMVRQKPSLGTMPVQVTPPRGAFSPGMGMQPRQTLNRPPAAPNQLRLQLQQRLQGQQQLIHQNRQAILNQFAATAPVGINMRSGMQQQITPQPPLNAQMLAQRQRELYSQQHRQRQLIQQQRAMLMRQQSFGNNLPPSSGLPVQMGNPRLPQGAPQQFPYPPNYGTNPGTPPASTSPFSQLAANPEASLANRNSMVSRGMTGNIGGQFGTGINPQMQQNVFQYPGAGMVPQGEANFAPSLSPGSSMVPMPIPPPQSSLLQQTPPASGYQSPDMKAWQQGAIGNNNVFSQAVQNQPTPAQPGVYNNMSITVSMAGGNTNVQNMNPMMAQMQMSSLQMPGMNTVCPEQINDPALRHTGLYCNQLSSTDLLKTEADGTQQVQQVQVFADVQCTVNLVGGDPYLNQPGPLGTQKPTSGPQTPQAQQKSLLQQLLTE
# Format: functional
Calls of active or inactive are those of the source.
reported property: EC50

# molecule, result
records = [
    ("O=C(Nc1cccc(NS(=O)(=O)c2ccc(S(=O)(=O)NC3CC3)cc2)c1)c1ccccn1", "> 79.4 µM (not active)"),
    ("O=C(Cc1nc2ccccc2nc1O)c1ccccc1", "> 79.4 µM (not active)"),
    ("CCOC(=O)c1s/c(=N\\C(=O)c2ccc(OC)c(OC)c2)n(C)c1C", "8.1 µM (active)"),
    ("CC(C)OC(=O)CSc1nc2cc3c(cc2cc1C#N)OCO3", "11.9 µM (not active)"),
]

---

Listed next: entries and their corresponding AC50.
# study target: UniProt:P9WMR3
# Sequence (P9WMR3 whole entry): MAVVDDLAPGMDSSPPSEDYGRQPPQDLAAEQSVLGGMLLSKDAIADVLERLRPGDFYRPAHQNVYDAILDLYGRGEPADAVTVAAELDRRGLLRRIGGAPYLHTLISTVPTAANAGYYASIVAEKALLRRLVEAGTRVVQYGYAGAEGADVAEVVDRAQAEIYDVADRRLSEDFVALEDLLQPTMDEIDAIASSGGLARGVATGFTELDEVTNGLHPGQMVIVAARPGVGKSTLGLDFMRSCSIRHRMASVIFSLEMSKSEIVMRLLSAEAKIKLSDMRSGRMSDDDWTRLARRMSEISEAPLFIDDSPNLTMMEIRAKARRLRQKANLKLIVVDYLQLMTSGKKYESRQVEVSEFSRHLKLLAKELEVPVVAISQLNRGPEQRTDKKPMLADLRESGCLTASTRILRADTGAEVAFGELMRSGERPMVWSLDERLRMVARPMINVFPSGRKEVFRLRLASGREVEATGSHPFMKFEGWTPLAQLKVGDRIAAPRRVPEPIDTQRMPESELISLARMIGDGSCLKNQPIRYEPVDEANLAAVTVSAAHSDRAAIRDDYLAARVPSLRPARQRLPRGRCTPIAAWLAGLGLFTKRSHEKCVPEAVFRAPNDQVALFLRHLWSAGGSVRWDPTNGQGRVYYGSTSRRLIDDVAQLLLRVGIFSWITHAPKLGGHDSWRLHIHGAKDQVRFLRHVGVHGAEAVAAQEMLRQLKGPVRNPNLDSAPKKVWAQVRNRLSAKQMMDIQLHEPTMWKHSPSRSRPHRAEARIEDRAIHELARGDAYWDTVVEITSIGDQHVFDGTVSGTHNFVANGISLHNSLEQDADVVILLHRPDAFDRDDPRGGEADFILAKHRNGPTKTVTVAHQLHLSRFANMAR
# experiment: DnaB intein splicing inhibitors, dose response, biochemical, cell-free fluorescence (AID 449749)
# Assay type: functional
Calls of active or inactive are those of the source.

# molecule, AC50
records = [
    ("O=C(Oc1ccc(C(=S)N2CCOCC2)cc1)c1ccc([N+](=O)[O-])cc1[N+](=O)[O-]", "18.6 µM (active)"),
    ("CC1=NN(c2ccccc2)C(=O)/C1=C/c1cccs1", "4.26 µM (active)"),
    ("O=[N+]([O-])c1ccc(Sc2nc(O)c3ccccc3n2)c([N+](=O)[O-])c1", "16.9 µM (active)"),
    ("Cc1ccc(SCc2cc(=O)n(C)[nH]2)cc1", "13.3 µM (active)"),
    ("O=C(Nc1ccc2nc3n(c(=O)c2c1)CCCCC3)c1c(F)ccc([N+](=O)[O-])c1F", "14.8 µM (active)"),
]

---

# study target: UniProt:P04406
# Sequence (P04406 whole entry): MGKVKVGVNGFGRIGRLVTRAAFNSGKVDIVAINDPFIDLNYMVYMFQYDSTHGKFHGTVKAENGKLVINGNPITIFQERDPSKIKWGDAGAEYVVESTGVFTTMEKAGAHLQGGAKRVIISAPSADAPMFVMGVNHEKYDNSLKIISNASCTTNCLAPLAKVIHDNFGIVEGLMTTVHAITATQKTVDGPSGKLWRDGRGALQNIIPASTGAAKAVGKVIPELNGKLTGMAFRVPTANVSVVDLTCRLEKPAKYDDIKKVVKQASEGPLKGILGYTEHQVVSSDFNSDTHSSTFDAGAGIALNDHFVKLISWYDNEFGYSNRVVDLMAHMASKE
Calls of active or inactive are those of the source.
Listed next: entries and their corresponding IC50.
reported property: IC50

# compound, result
data = [
    ("Cc1cc2nc3s/c(=C/c4ccc(-c5ccccc5C(=O)O)o4)c(=O)n3c2cc1C", "> 100 µM (not active)"),
    ("CCOc1ccc(S(=O)(=O)Nc2cnc3ccccc3c2)cc1", "> 100 µM (not active)"),
    ("O=C(O)C1Nc2c(I)cccc2C2C=CCC12 (stereo unspecified)", "47.8 µM (active)"),
    ("O=C(O)C1Nc2c(cccc2N2CCOCC2)C2C=CCC12 (stereo unspecified)", "> 100 µM (not active)"),
    ("O=C1C(Cl)=C(N2CCN(CCOCCO)CC2)C(=O)N1c1ccc([N+](=O)[O-])cc1", "> 100 µM (not active)"),
    ("CCN1CCN(C2=C(Cl)C(=O)N(c3cccc(OC)c3)C2=O)CC1", "> 50 µM (inconclusive)"),
    ("O=C(O)Cc1csc(COc2ccccc2)n1", "> 100 µM (not active)"),
    ("O=C1C(Cl)=C(Cl)C(=O)N1c1c(Cl)cccc1Cl", "> 100 µM (not active)"),
    ("O=C1C(Cl)=C(N2CCN(c3ccc(Cl)cc3)CC2)C(=O)N1c1ccc(Cl)c(Cl)c1", "> 100 µM (not active)"),
    ("CC(C)NC(=O)c1cc(-c2cc(F)c(Cl)cc2Cl)n[nH]1", "> 100 µM (not active)"),
    ("COc1ccc(C(CC(=O)O)C(N)=O)cc1 (stereo unspecified)", "> 100 µM (not active)"),
]

---

# experiment: Luminescence Cell-Based Dose Confirmation HTS to Identify Inhibitors of Platelet Dense Granule Release. [Related pubchem assays: 1663 (Primary HTS), 1678 (Summary of Project)]
# Type: functional
Activity calls are given as the source filed them.
reported property: EC50

# molecule, reported property, result
records = [
    ("Cc1cccc(C(=N)NOC(=O)c2ccoc2C)c1", "EC50", "3.25 µM (active)"),
    ("O=C(COc1cccc(OC(F)F)c1)Nc1ccc(SC(F)F)cc1", "EC50", "> 112 µM (not active)"),
    ("CCN1C(=O)Nc2cccc3cccc1c23", "EC50", "7.12 µM (active)"),
    ("COC(=O)c1[nH]c2cc(OC)ccc2c1NC(=O)CN1CCOCC1", "EC50", "> 112 µM (not active)"),
]

---

Listed next: entries and their corresponding AC50.
# experiment: P. falciparum Dd2 growth inhibitors, dose response, SYBR Green, cherry-picked samples (AID 1159567)
# Type: functional, cell-based
Activity calls are given as the source filed them.

# molecule, AC50
records = [
    ("COc1ccc(S(=O)(=O)Nc2ccc3c(c2)CC(=O)N([C@H](C)CO)C[C@H](C)[C@H](CN(C)S(=O)(=O)c2ccc(C)cc2)O3)cc1", "1.89 µM (active)"),
    ("CO[C@H]1CN(C)C(=O)c2cc(NC(=O)c3ccc(F)cc3)ccc2OC[C@H](C)N(C(=O)c2ccc(F)cc2)C[C@H]1C", "6.03 µM (active)"),
    ("O=C(c1ccccc1)N1CC[C@@H]2[C@@H](CO)Nc3ccc(-c4ccc(F)cc4)cc3[C@@H]21", "5.45 µM (active)"),
    ("C[C@H]1CN([C@@H](C)CO)C(=O)c2c(c3ccccc3n2C)-c2ccccc2CO[C@@H]1CN(C)S(=O)(=O)c1ccc(F)cc1", "1.89 µM (active)"),
    ("COc1ccc(S(=O)(=O)N2CCCCN3[C@@H](CO)[C@@H](c4ccc(C5=CCCCC5)cc4)[C@@H]3C2)cc1", "0.972 µM (active)"),
    ("CCCc1cn(CC[C@@H]2CC[C@H](NS(=O)(=O)c3ccc(-c4ccccc4)cc3)[C@H](CO)O2)nn1", "1.39 µM (active)"),
    ("C[C@H]1CN([C@@H](C)CO)S(=O)(=O)c2ccc(C#Cc3ccccc3)cc2O[C@@H]1CN(C)C(=O)C1CC1", "5.43 µM (active)"),
]

---

# study target: DNA dC->dU-editing enzyme APOBEC-3G (Homo sapiens)
# Sequence (Q9HC16 whole entry): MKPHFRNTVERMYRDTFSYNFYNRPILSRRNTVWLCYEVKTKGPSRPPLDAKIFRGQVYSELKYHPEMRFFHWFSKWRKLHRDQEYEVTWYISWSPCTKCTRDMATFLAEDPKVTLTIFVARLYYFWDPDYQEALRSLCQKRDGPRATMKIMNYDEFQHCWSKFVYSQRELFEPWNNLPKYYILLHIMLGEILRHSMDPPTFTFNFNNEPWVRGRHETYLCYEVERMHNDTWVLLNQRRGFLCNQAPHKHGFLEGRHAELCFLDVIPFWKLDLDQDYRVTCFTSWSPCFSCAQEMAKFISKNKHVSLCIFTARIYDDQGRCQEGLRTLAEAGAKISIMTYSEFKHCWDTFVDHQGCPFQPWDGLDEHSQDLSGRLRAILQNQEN
# experiment: Dose Response confirmation of small molecule APOBEC3G DNA Deaminase Inhibitors via a fluorescence-based single-stranded DNA deaminase assay. [Related pubchem assays (depositor defined):AID493012, AID493028]
# Assay type: functional
Activity calls are given as the source filed them.

# molecule, IC50
rows = [
    ("C=CCn1c(S)nnc1-c1cccc(S(=O)(=O)N(CC)CC)c1", "5.67 µM (active)"),
    ("COc1ccc(/C=N/n2c(S)nnc2-c2[nH]nc3c2CCC3)cc1OC", "2.49 µM (active)"),
    ("CCN(CC)c1ccc(NC(=O)c2cccc(C)c2)cc1S(=O)(=O)Nc1ccccc1OC", "51.5 µM (active)"),
    ("Cn1c(-c2sccc2OCc2ccccc2)n[nH]c1=S", "2.8 µM (active)"),
]
